// reported amount of luminescence (photons/sec) in liver per item
tested on: liver; experiment: In vivo gene expression, luciferase luminescence in the liver after tail vein administration (Experimental Example 4); settings: BALB/c mouse, tail vein, mRNA 0.05 mg/kg, 4.5 hr after administration; LNP cationic lipid:DOPC:Chol:DMG-PEG2k = 52.5:7.5:40:1.5, prepared as in Experimental Example 2
assay metric: amount of luminescence (photons/sec) in liver

{"columns": ["molecule", "readout value"],
 "data": [
  ["CCCCCCCC/C=C\\CCCCCCCC(=O)Oc1ccc(CC(=O)OCCC2CCN(CCSSCCN3CCC(CCOC(=O)Cc4ccc(OC(=O)CCCC(=O)N(CCCCCC)CCCCCC)cc4)CC3)CC2)cc1 [compound 124]", "5.12E+09"],
  ["CCCCCC/C=C\\COC(=O)CCCC(=O)Oc1ccc(CC(=O)OCCC2CCN(CCSSCCN3CCC(CCOC(=O)Cc4ccc(OC(=O)CCCC(=O)OC/C=C\\CCCCCC)cc4)CC3)CC2)cc1 [compound 41]", "1.73E+09"],
  ["CCCCCCCC/C=C\\CCCCCCCC(=O)Oc1ccc(CC(=O)OCCC2CCN(CCSSCCN3CCC(CCOC(=O)Cc4ccc(OC(=O)CCCCCCCC(OC(=O)CC)C(CCCCCCCC)OC(=O)CC)cc4)CC3)CC2)cc1 (centres unmarked) [compound 94]", "9.40E+09"],
  ["CCCCCC[C@@H](C/C=C\\CCCCCCCC(=O)Oc1ccc(CC(=O)OCCC2CCN(CCSSCCN3CCC(CCOC(=O)Cc4ccc(OC(=O)CCCC(=O)OC[C@H](COC(C)=O)OC(C)=O)cc4)CC3)CC2)cc1)OC(=O)CCCCC [compound 17]", "3.73E+09"],
  ["CCCCCCCC/C=C\\CCCCCCCC(=O)Oc1ccc(CC(=O)OCCC2CCN(CCSSCCN3CCC(CCOC(=O)Cc4ccc(OC(=O)CCCC(=O)OC[C@H](COC(=O)CCCCCC)OC(=O)CCCCCC)cc4)CC3)CC2)cc1 [compound 14]", "6.12E+09"]
]}

* * *

experiment: Particle size, PdI and zeta potential of mRNA-encapsulating LNPs by dynamic light scattering (Experimental Example 6); type: physicochemical; settings: mRNA-encapsulating LNP, cationic lipid:DOPC:Chol=49:7.5:42.5:1, dispersion in TBS, dynamic light scattering (Tables 8-1, 8-2)
Assign class by PdI: not lower than 0.1 means True; lower than 0.1 means False.

{"columns": ["compound", "assigned category"],
 "data": [
  ["CCCCCCCC(=O)OC(CC=CCCCCCCCC(=O)Oc1ccc(CC(=O)OCCC2CCN(CCSSCCN3CCC(CCOC(=O)Cc4ccc(OC(=O)CCCCCCCC=CCC(CCCCCC)OC(=O)CCCCC)cc4)CC3)CC2)cc1)CCCCCC (centres unmarked)", "False"],
  ["CCCCCC/C=C\\COC(=O)CCCC(=O)Oc1ccc(CC(=O)OCCC2CCN(CCSSCCN3CCC(CCOC(=O)Cc4ccc(OC(=O)CCCCCCC/C=C\\CCCCCCCC)cc4)CC3)CC2)cc1", "True"],
  ["CCCCCCC#CCCOC(=O)CCCC(=O)Oc1ccc(CC(=O)OCCC2CCN(CCSSCCN3CCC(CCOC(=O)Cc4ccc(OC(=O)CCCCCCCC(=O)OC(CCCCCCCC)CCCCCCCC)cc4)CC3)CC2)cc1", "True"],
  ["CCCCCCC(C/C=C\\CCCCCCCC(=O)Oc1ccc(CC(=O)OCCC2CCN(CCSSCCN3CCC(CCOC(=O)Cc4ccc(OC(=O)CCCCCCC/C=C\\CC(CCCCCC)OC(=O)c5ccc(OCC)c(OCC)c5)cc4)CC3)CC2)cc1)OC(=O)c1ccc(OCC)c(OCC)c1 (centres unmarked)", "False"],
  ["CCCCCCCC/C=C\\CCCCCCCC(=O)Oc1ccc(CC(=O)OCCC2CCN(CCSSCCN3CCC(CCOC(=O)Cc4ccc(OC(=O)CCCCCCCC(OC(=O)CC)C(CCCCCCCC)OC(=O)CC)cc4)CC3)CC2)cc1 (centres unmarked)", "True"],
  ["CCCCCCCC/C=C\\CCCCCCCC(=O)Oc1ccc(CC(=O)OCCC2CCN(CCSSCCN3CCC(CCOC(=O)Cc4ccc(OC(=O)CCCC(=O)OC(CC(=O)OCCCC)(CC(=O)OCCCC)CC(=O)OCCCC)cc4)CC3)CC2)cc1", "False"],
  ["CCCCCCCC/C=C\\CCCCCCCC(=O)Oc1ccc(CC(=O)OCCC2CCN(CCSSCCN3CCC(CCOC(=O)Cc4ccc(OC(=O)CCCCCCC/C=C\\CCCCCCCC)cc4)CC3)CC2)cc1 [Comparative Example, reference compound]", "False"],
  ["CCCCCCCC/C=C\\CCCCCCCC(=O)Oc1ccc(CC(=O)OCCC2CCN(CCSSCCN3CCC(CCOC(=O)Cc4ccc(OC(=O)CCCCCCC/C=C\\CC(CCCCCC)OC(=O)C(CC)CCCC)cc4)CC3)CC2)cc1 (centres unmarked)", "False"],
  ["CCCCCCC#CCCOC(=O)CCCC(=O)Oc1ccc(CC(=O)OCCC2CCN(CCSSCCN3CCC(CCOC(=O)Cc4ccc(OC(=O)CCCCCCC/C=C\\CCCCCCCC)cc4)CC3)CC2)cc1", "True"],
  ["CCCCCCC#CCCOC(=O)CCCC(=O)Oc1ccc(CC(=O)OCCC2CCN(CCSSCCN3CCC(CCOC(=O)Cc4ccc(OC(=O)CCCC(=O)Oc5c(C)c(C)c6c(c5C)CCC(C)(CCCC(C)CCCC(C)CCCC(C)C)O6)cc4)CC3)CC2)cc1 (centres unmarked)", "True"],
  ["CCCCCCCC/C=C\\CCCCCCCC(=O)Oc1ccc(CC(=O)OCCC2CCN(CCSSCCN3CCC(CCOC(=O)Cc4ccc(OC(=O)CCCCCCCCCCC(CCCCCC)OC(=O)CCCCCCC)cc4)CC3)CC2)cc1 (centres unmarked)", "False"]
]}

* * *

assay: Particle size, PdI and zeta potential of mRNA-encapsulating LNPs by dynamic light scattering (Experimental Example 2); assay type: physicochemical; details: mRNA-encapsulating LNP containing the cationic lipid, dispersion in PBS, dynamic light scattering (Table 5-3)
assay metric: particle size (nm)

{"columns": ["compound", "readout value"],
 "data": [
  ["CCCCCCCC/C=C\\CCCCCCCC(=O)Oc1ccc(CC(=O)OCCC2CCN(CCSSCCN3CCC(CCOC(=O)Cc4ccc(OC(=O)CCCC(=O)N(CCCCCC)CCCCCC)cc4)CC3)CC2)cc1 [compound 124]", "96.63 nm"],
  ["CCCCCCCC/C=C\\CCCCCCCC(=O)Oc1ccc(CC(=O)OCCC2CCN(CCSSCCN3CCC(CCOC(=O)Cc4ccc(OC(=O)CCCCCCCC(OC(=O)CC)C(CCCCCCCC)OC(=O)CC)cc4)CC3)CC2)cc1 (stereo not shown) [compound 94]", "88.0 nm"],
  ["CCCCCCCC(=O)OC(CC=CCCCCCCCC(=O)Oc1ccc(CC(=O)OCCC2CCN(CCSSCCN3CCC(CCOC(=O)Cc4ccc(OC(=O)CCCCCCCC=CCC(CCCCCC)OC(=O)CCCCC)cc4)CC3)CC2)cc1)CCCCCC (stereo not shown) [compound 162]", "91.2 nm"],
  ["CCCCCCCC/C=C\\CCCCCCCC(=O)Oc1ccc(CC(=O)OCCC2CCN(CCSSCCN3CCC(CCOC(=O)Cc4ccc(OC(=O)CCCCCCC/C=C\\CCCCCCCC)cc4)CC3)CC2)cc1 [Comparative Example, reference compound]", "108.70 nm"]
]}

* * *

test: Particle size, PdI and zeta potential of mRNA-encapsulating LNPs by dynamic light scattering (Experimental Example 2); assay type: physicochemical; conditions: mRNA-encapsulating LNP, cationic lipid:DOPC:Chol = 50:10:40 (molar ratio) + DMG-PEG2k about 1 mol; Zetasizer Nano

{"columns": ["molecule", "zeta potential (mV)"],
 "data": [
  ["CCCCCCCC/C=C\\CCCCCCCC(=O)Oc1ccc(CC(=O)OCCC2CCN(CCSSCCN3CCC(CCOC(=O)Cc4ccc(OC(=O)CCCCCCC/C=C\\C[C@H](CCCCCC)OC(C)=O)cc4)CC3)CC2)cc1", -3.79],
  ["CCCCCC[C@@H](C/C=C\\CCCCCCCC(=O)Oc1ccc(CC(=O)OCCC2CCN(CCSSCCN3CCC(CCOC(=O)Cc4ccc(OC(=O)CCCC(=O)OC[C@H](COC(C)=O)OC(C)=O)cc4)CC3)CC2)cc1)OC(=O)CCCCC", -5.19],
  ["CCCCCCC#CCCOC(=O)CCCC(=O)Oc1ccc(CC(=O)OCCC2CCN(CCSSCCN3CCC(CCOC(=O)Cc4ccc(OC(=O)CCCC(=O)Oc5c(C)c(C)c6c(c5C)CCC(C)(CCCC(C)CCCC(C)CCCC(C)C)O6)cc4)CC3)CC2)cc1 (stereo not shown)", -2.14],
  ["CCCCCCC#CCCOC(=O)CCCC(=O)Oc1ccc(CC(=O)OCCC2CCN(CCSSCCN3CCC(CCOC(=O)Cc4ccc(OC(=O)CCCCCCC/C=C\\CCCCCCCC)cc4)CC3)CC2)cc1", -6.03]
]}
